- Test system: sAPPβ release, SH-SY5Y cells
- methodSummary: sAPPβ release assay
- Type: cell-based
- runParameters: Homo sapiens, 17 h incubation, MSD detection
Below is a list of entries, each paired with its recorded pIC50 value.
// field semantics: pIC50 = negative decimal log of concentration (mol/L)

// solved cases for pIC50 follow
{"columns": ["compound", "measuredResult"],
 "data": [
  ["CC1=NC2(N=C1N)c1cc(-c3cc(F)cc(C#N)c3)ccc1CCC21CC1 (stereo not shown)", 7.64],
  ["CC1=NC2(N=C1N)c1cc(-c3cc(Cl)cc(C#N)c3)ccc1CCC21CC1 (stereo not shown)", 7.80],
  ["CC1=NC2(N=C1N)c1cc(-c3cncc(Cl)c3)ccc1CCC21CC1 (stereo not shown)", 7.96]
]}

--- query ---
In one line, give reported pIC50 of the entry CC1=NC2(N=C1N)c1cc(-c3cc(F)cc(F)c3)ccc1CCC21CC1 (stereo not shown) .
6.93

---

- targetUnderTest: human β-Secretase (Homo sapiens (Human))
- methodSummary: TR-FRET assay
- Type: biochemical
- runParameters: sBACE-Fc 2.7 μg/ml, substrate 100 nM, pH 4.5, 15 minutes at RT
Below is a list of entries, each paired with its recorded pIC50 value.
// field semantics: pIC50 = negative decimal log of concentration (mol/L)

{"columns": ["molecule", "targetUnderTest", "measuredResult"],
 "data": [
  ["CC1=NC2(N=C1N)c1cc(-c3cc(F)cc(C#N)c3)ccc1CCC21CC1 (centres unmarked) [Example 2]", "human β-Secretase (Homo sapiens (Human))", 7.10],
  ["CO[C@H]1CC[C@]2(CCc3ccc(Br)cc3C23N=C(C)C(N)=N3)CC1 (single isomer, unassigned; isomer 2) [5, isomer 2]", "human β-Secretase (Homo sapiens (Human))", 5.05],
  ["CO[C@H]1CC[C@@]2(CCc3ccc(-c4cc(Cl)cc(C#N)c4)cc3C23N=C(C)C(N)=N3)CC1 (single isomer, unassigned; isomer 2) [10, isomer 2]", "human β-Secretase (Homo sapiens (Human))", 6.41]
]}

In one line, give reported pIC50 of the entry CC1=NC2(N=C1N)c1cc(-c3cc(F)cc(F)c3)ccc1CCC21CC1 (centres unmarked) [Example 3] .
6.89

---

Below is a list of entries, each paired with its recorded IC50 value.
- targetUnderTest: human β-Secretase (Homo sapiens (Human), UniProt P56817)
- Sequence (P56817 22-460): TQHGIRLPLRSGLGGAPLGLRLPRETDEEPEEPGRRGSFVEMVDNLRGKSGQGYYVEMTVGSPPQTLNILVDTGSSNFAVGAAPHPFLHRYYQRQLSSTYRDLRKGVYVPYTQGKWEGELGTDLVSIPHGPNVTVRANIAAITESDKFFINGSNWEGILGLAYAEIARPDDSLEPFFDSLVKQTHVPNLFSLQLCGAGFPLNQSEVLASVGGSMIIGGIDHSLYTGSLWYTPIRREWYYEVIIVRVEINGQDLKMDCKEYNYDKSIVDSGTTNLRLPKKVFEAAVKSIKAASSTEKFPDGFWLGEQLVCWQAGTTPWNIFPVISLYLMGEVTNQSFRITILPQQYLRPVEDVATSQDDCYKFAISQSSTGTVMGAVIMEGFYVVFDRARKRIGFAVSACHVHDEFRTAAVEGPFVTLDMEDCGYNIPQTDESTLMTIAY
- methodSummary: TR-FRET assay
- Type: biochemical
- runParameters: sBACE-Fc 2.7 μg/ml, substrate 100 nM, pH 4.5, 15 minutes at RT
Write the number in nM without appending the unit.

// solved cases for IC50 follow
{"columns": ["molecule", "IC50, nM"],
 "data": [
  ["CC#Cc1cncc(-c2ccc3c(c2)C2(N=C(C)C(N)=N2)[C@]2(CC3)CC[C@H](OC)CC2)c1 (single isomer, unassigned; isomer 1) [8, isomer 1]", 212],
  ["CO[C@H]1CC[C@@]2(CCc3ccc(Br)cc3C23N=C(C)C(N)=N3)CC1 (single isomer, unassigned; isomer 1) [5, isomer 1]", 411],
  ["CC#Cc1cncc(-c2ccc3c(c2)C2(N=C(C)C(N)=N2)[C@]2(CC3)CC[C@@H](OC)CC2)c1 (single isomer, unassigned; isomer 2) [8, isomer 2]", 19],
  ["CO[C@H]1CC[C@]2(CCc3ccc(-c4cncc(Cl)c4)cc3C23N=C(C)C(N)=N3)CC1 (single isomer, unassigned; isomer 2) [7, isomer 2]", 333]
]}

In one line, give reported IC50 of the entry COc1cc(C#N)cc(-c2ccc3c(c2)C2(N=C(C)C(N)=N2)[C@]2(CC3)CC[C@H](OC)CC2)c1 (single isomer, unassigned; isomer 2) [6, isomer 2] .
587

Hello, the source for this data is patent US9000184B2, in case you need it.
